Hey, just so you know, these numbers are from paper PMC7340254.

Target: histidine-binding protein (HisBP) (Escherichia coli, UniProt P0AEU0)
Sequence (P0AEU0 23-260): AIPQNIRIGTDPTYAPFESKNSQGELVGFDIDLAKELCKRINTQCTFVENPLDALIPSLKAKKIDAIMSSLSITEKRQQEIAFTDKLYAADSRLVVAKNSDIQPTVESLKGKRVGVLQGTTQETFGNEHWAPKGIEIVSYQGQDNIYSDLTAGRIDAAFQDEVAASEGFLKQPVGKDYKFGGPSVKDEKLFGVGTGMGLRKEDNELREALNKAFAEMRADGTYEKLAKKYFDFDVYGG
Assay: biochemical
Conditions: K D fitted to SAXS V R titration curves, DESY, 4s exposure, […] 10^13 photons, HisBP 40 µM
Listed next: entries and their corresponding pKd.
pKd is defined as minus the log10 of a concentration measured in mol/L.

{"structure-notation": "N=C(N)NCCC[C@H](N)C(=O)O", "reported-result": 4.13}

// pKd lookup, key: N[C@@H](Cc1c[nH]cn1)C(=O)O 5.43

// pKd lookup, key: NCCCC[C@H](N)C(=O)O 3.14

----------
Molecular target: histidine-binding protein (HisBP) (Escherichia coli, UniProt P0AEU0)
Test: biochemical
Conditions: K D fitted to SAXS V R titration curves, Diamond, 40s exposure, […] 10^14 photons, HisBP 20 µM
Listed next: entries and their corresponding Kd.
Supply the numeric figure in nM, leaving out any unit text.

Examples with answers:
{"compound": "N[C@@H](Cc1c[nH]cn1)C(=O)O [His, histidine]", "unit-string": "nM", "Kd": 5.1}
{"compound": "NCCCC[C@H](N)C(=O)O [Lys, lysine]", "unit-string": "nM", "Kd": 47000}

Switching to the query record.
// Kd lookup, key: N=C(N)NCCC[C@H](N)C(=O)O [Arg, arginine] 920
